biological target: UniProtKB Q9UNA0
Sequence (Q9UNA0 whole entry): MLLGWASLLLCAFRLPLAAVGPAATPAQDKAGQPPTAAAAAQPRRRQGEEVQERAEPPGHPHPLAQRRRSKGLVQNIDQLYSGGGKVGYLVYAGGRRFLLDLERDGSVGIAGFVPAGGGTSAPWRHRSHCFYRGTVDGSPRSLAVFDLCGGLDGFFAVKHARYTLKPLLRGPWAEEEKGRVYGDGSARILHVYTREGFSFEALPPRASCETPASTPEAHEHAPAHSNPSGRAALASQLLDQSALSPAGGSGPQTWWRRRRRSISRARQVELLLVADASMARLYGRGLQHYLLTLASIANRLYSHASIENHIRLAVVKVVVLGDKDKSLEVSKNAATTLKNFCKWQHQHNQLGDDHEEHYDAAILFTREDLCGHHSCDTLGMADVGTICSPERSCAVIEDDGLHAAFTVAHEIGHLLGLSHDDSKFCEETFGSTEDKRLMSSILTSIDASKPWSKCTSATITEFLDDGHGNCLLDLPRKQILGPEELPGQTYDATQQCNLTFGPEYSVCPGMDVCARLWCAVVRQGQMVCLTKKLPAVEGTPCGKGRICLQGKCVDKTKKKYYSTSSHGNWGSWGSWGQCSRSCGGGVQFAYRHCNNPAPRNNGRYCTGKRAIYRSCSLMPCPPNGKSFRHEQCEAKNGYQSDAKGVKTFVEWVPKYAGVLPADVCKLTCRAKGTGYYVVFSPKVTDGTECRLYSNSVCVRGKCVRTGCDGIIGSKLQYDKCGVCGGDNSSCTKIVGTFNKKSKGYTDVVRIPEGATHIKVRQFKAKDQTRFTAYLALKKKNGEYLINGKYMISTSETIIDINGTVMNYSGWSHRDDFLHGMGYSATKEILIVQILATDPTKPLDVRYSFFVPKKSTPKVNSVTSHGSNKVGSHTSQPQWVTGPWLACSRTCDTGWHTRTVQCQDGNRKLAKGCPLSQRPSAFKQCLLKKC
pIC50: −log10 of the molar value.

| compound | assayedSystem | pIC50 |
| --- | --- | --- |
| CN1CCN(c2c(/C=C3\SC(=S)NC3=O)c(-c3ccccc3)nn2-c2ccccc2)CC1 | UniProtKB Q9UNA0 | 5.34 |
| Cn1nc(-c2ccccc2)c(/C=C2\SC(=S)NC2=O)c1SCc1ccco1 | UniProtKB Q9UNA0 | 4.85 |
| O=C1NC(=S)S/C1=C\c1c(C(F)(F)F)nn(-c2ccccc2)c1OCCc1ccc(Cl)cc1 | UniProtKB Q9UNA0 | 5.38 |
| O=C1NC(=S)SC1Cc1c(C(F)(F)F)nn(-c2ccccc2)c1SCc1ccc(Cl)cc1 (stereo not given) | UniProtKB Q9UNA0 | 5.24 |
| Cn1nc(C(F)(F)F)c(/C=C2\SC(=S)NC2=O)c1N1CCN(c2ccc(Cl)cc2)CC1 | UniProtKB Q9UNA0 | 5.05 |
| O=C1NC(=S)S/C1=C\c1c(-c2ccccc2)nn(C2CCCCC2)c1SCc1ccco1 | UniProtKB Q9UNA0 | 5.34 |
| Cc1ccc(Sc2c(/C=C3\SC(=S)NC3=O)c(-c3ccccc3)nn2C)cc1 | UniProtKB Q9UNA0 | 5.08 |
| O=C1NC(=S)S/C1=C\c1c(-c2ccccc2)nn(-c2ccccc2)c1SCc1ccco1 | UniProtKB Q9UNA0 | 5.17 |
| Cn1nc(C(F)(F)F)c(/C=C2\SC(=S)NC2=O)c1SCc1ccc(Cl)cc1 | UniProtKB Q9UNA0 | 5.96 |
| O=C1NC(=S)S/C1=C\c1c(C(F)(F)F)nn(C2CCCCC2)c1SCc1ccc(Cl)cc1 | UniProtKB Q9UNA0 | 5.38 |

Origin of values: ChEMBL document CHEMBL1148844
